Where these numbers come from: ChEMBL document CHEMBL4828771

pIC50: −log10 of the molar value.
Let's go through some pIC50 measurements on Serine/threonine-protein kinase Chk1 (Homo sapiens) together.
MEASURED_PARAMETER: pIC50

COMPOUND | pIC50
N#Cc1ccc(Nc2ncc(C(F)(F)F)c(NC3CN4CCC3CC4)n2)cn1 (stereo not given) | 6.51
CNc1nc(Nc2cnc(C#N)c(N[C@@H]3CCN(C)C3)c2)ncc1C(F)(F)F | 6.92
CNc1nc(Nc2cnc(C#N)c(O[C@H]3CCCNC3)c2)ncc1C(F)(F)F | 6.45

a. N#Cc1ccc(Nc2ncc(C(F)(F)F)c(N[C@H]3CCCNC3)n2)cn1
b. N#Cc1ccc(Nc2ncc(C(F)(F)F)c(NCCCNCCN3CCOCC3)n2)cn1
When a and b are compared, which has the higher number for pIC50? Choose, then provide that item's label.
a
(a: 7.55, b: 5.79)

----------
- ASSAY_PROCEDURE: Tmax in ICR mouse at 20 mg/kg, po measured after 0.083 to 48 hrs by LC-MS/MS analysis
- Format: ADME, organism-based
- PROTOCOL_CONDITIONS: in vivo, time 0.083-48 hrs
MEASURED_PARAMETER: Tmax (min)

CHEMICAL_STRING | Tmax (min)
CNCCCNc1nc(Nc2ccc(C#N)nc2)ncc1C(F)(F)F | 30
CNc1nc(Nc2cnc(C#N)c(O[C@@H]3CCCNC3)c2)ncc1C(F)(F)F | 64.8
CNc1nc(Nc2cnc(C#N)c(N[C@@H]3CCNC3)c2)ncc1C(F)(F)F | 19.8

1. N#Cc1ccc(Nc2ncc(C(F)(F)F)c(NCCCN)n2)cn1
2. CS(=O)(=O)CCNCCCNc1nc(Nc2ccc(C#N)nc2)ncc1C(F)(F)F
When 1 and 2 are compared, which has the higher number for Tmax? Choose, then provide that item's label.
1

P. CC(C)(N)CCNc1nc(Nc2ccc(C#N)nc2)ncc1C(F)(F)F
Q. CNc1nc(Nc2cnc(C#N)c(O[C@@H]3CCCNC3)c2)ncc1-c1cnn(C(F)(F)F)c1
When P and Q are compared, which has the higher number for Tmax? Choose, then provide that item's label.
P
(P: 240 min, Q: 120 min)

----------
- ASSAY_PROCEDURE: AUC (0 to infinity) in ICR mouse at 20 mg/kg, po measured after 0.083 to 48 hrs by LC-MS/MS analysis
- Type: ADME, organism-based
- Design: route oral, time upper 48 hrs, time lower 0.083 hrs, dose 20 mg/kg
- PROTOCOL_CONDITIONS: in vivo
MEASURED_PARAMETER: AUC(0-inf) (µg·h/mL)

The following compounds have reported results that may help.
CHEMICAL_STRING | AUC(0-inf) (µg·h/mL)
CNc1nc(Nc2cnc(C#N)c(O[C@@H]3CCCNC3)c2)ncc1C(F)(F)F | 0.168
N#Cc1ccc(Nc2ncc(C(F)(F)F)c(NCCCN)n2)cn1 | 4.1
CS(=O)(=O)CCNCCCNc1nc(Nc2ccc(C#N)nc2)ncc1C(F)(F)F | 2.71
CC(C)(N)CCNc1nc(Nc2ccc(C#N)nc2)ncc1C(F)(F)F | 22.7

A. CNc1nc(Nc2cnc(C#N)c(O[C@@H]3CCCNC3)c2)ncc1-c1cnn(C(F)(F)F)c1
B. CNCCCNc1nc(Nc2ccc(C#N)nc2)ncc1C(F)(F)F
C. CNc1nc(Nc2cnc(C#N)c(N[C@@H]3CCNC3)c2)ncc1C(F)(F)F
Task for the reader: rank each entry by its AUC(0-inf), from the minimum upward. List the labels in the requested order.
A, C, B

----------
- ASSAY_PROCEDURE: Half life in ICR mouse at 20 mg/kg, po measured after 0.083 to 48 hrs by LC-MS/MS analysis
- Type: ADME, organism-based
- PROTOCOL_CONDITIONS: in vivo, time 0.083-48 hrs
MEASURED_PARAMETER: half-life (h)

The following compounds have reported results that may help.
CHEMICAL_STRING | MEAS_VALUE
CNc1nc(Nc2cnc(C#N)c(O[C@@H]3CCCNC3)c2)ncc1C(F)(F)F | 0.7
N#Cc1ccc(Nc2ncc(C(F)(F)F)c(NCCCN)n2)cn1 | 0.76

a. CNCCCNc1nc(Nc2ccc(C#N)nc2)ncc1C(F)(F)F
b. CNc1nc(Nc2cnc(C#N)c(O[C@@H]3CCCNC3)c2)ncc1-c1cnn(C(F)(F)F)c1
c. CNc1nc(Nc2cnc(C#N)c(N[C@@H]3CCNC3)c2)ncc1C(F)(F)F
d. CS(=O)(=O)CCNCCCNc1nc(Nc2ccc(C#N)nc2)ncc1C(F)(F)F
e. CC(C)(N)CCNc1nc(Nc2ccc(C#N)nc2)ncc1C(F)(F)F
Falling order of half-life, please. List the labels in the requested order.
e, a, d, c, b

----------
- ASSAY_PROCEDURE: AUC(0 to infinity) in ICR mouse at 10 mg/kg, po measured after 0.083 to 48 hrs by LC-MS/MS analysis
- Assay type: ADME, organism-based
- Parameters: route oral, time lower 0.083 hrs, dose 10 mg/kg, time upper 48 hrs
- PROTOCOL_CONDITIONS: in vivo
MEASURED_PARAMETER: AUC(0-inf) (ng·h/mL)
Kindly provide the numeric value in ng·h/mL only, without the unit symbol.

Fill in reported AUC(0-inf) for this entry: N#Cc1ccc(Nc2ncc(C(F)(F)F)c(N[C@H]3CC[C@H](N)CC3)n2)cn1
1440

----------
- ASSAY_PROCEDURE: Tmax in ICR mouse at 10 mg/kg, po measured after 0.083 to 48 hrs by LC-MS/MS analysis
- Type: ADME, organism-based
- PROTOCOL_CONDITIONS: in vivo, time 0.083-48 hrs
MEASURED_PARAMETER: Tmax (h)
Kindly provide the numeric value in h only, without the unit symbol.

Fill in reported Tmax for this entry: N#Cc1ccc(Nc2ncc(C(F)(F)F)c(N[C@H]3CC[C@H](N)CC3)n2)cn1
1.42

----------
- ASSAY_PROCEDURE: Half life in ICR mouse at 10 mg/kg, po measured after 0.083 to 48 hrs by LC-MS/MS analysis
- Format: ADME, organism-based
- PROTOCOL_CONDITIONS: in vivo, time 0.083-48 hrs
MEASURED_PARAMETER: half-life (h)
Kindly provide the numeric value in h only, without the unit symbol.

Fill in reported half-life for this entry: N#Cc1ccc(Nc2ncc(C(F)(F)F)c(N[C@H]3CC[C@H](N)CC3)n2)cn1
2.88

----------
- ASSAY_PROCEDURE: MRT(0 to infinity) in ICR mouse at 10 mg/kg, po measured after 0.083 to 48 hrs by LC-MS/MS analysis
- Format: ADME, organism-based
- PROTOCOL_CONDITIONS: in vivo, time 0.083-48 hrs
MEASURED_PARAMETER: MRT inf (h)
Kindly provide the numeric value in h only, without the unit symbol.

Fill in reported MRT inf for this entry: N#Cc1ccc(Nc2ncc(C(F)(F)F)c(N[C@H]3CC[C@H](N)CC3)n2)cn1
3.37

----------
- TESTED_TARGET: hERG (KCNH2) (Homo sapiens, UniProt Q12809)
- Sequence (Q12809 whole entry): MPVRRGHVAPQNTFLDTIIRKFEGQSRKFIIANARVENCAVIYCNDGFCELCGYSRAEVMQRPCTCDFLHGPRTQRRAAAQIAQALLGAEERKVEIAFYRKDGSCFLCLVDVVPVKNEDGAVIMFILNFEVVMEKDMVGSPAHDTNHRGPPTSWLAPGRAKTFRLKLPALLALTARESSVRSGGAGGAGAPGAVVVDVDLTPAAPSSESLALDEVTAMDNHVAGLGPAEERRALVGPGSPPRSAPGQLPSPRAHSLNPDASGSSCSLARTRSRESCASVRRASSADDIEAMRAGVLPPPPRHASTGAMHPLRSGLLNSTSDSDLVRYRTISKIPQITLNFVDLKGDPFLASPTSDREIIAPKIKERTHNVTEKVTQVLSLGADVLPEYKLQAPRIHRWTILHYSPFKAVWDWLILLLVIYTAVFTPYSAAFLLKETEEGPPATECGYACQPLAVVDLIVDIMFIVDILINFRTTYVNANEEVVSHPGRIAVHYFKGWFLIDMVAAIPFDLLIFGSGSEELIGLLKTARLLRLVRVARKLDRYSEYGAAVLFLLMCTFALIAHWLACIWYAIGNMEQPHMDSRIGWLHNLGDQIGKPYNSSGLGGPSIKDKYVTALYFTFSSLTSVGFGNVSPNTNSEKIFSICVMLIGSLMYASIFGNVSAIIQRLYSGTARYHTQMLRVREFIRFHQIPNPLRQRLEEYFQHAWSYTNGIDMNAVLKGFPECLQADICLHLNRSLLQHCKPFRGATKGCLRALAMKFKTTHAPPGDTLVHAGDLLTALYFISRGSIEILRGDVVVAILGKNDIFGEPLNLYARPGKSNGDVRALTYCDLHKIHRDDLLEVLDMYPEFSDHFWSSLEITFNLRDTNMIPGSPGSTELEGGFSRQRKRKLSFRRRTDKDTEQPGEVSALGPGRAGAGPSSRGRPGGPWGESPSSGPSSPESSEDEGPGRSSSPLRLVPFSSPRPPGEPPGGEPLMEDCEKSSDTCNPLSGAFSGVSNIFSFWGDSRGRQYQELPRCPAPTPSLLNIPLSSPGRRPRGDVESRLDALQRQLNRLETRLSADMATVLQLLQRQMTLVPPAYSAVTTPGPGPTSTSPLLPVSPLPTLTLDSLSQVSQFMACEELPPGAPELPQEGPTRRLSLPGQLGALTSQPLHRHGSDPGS
- ASSAY_PROCEDURE: Inhibition of human ERG expressed in HEK293 cells at 10 uM by patch-clamp technique relative to control
- Type: cell-based
- PROTOCOL_CONDITIONS: HEK293 cells that express hERG
inhibition at 10 µM overview
Kindly provide the numeric value in % only, without the unit symbol.

COMPOUND | ENDPOINT_UNIT | inhibition at 10 µM
CNc1nc(Nc2cnc(C#N)c(N[C@H]3CC[C@@H](N)CC3)c2)ncc1C(F)(F)F | % | 84.2

Next up:
Fill in reported inhibition at 10 µM for this entry: N#Cc1ccc(Nc2ncc(C(F)(F)F)c(N[C@H]3CC[C@@H](N)CC3)n2)cn1
36.8

----------
- TESTED_TARGET: Serine/threonine-protein kinase Chk1 (Homo sapiens, UniProt O14757)
- Sequence (O14757 whole entry): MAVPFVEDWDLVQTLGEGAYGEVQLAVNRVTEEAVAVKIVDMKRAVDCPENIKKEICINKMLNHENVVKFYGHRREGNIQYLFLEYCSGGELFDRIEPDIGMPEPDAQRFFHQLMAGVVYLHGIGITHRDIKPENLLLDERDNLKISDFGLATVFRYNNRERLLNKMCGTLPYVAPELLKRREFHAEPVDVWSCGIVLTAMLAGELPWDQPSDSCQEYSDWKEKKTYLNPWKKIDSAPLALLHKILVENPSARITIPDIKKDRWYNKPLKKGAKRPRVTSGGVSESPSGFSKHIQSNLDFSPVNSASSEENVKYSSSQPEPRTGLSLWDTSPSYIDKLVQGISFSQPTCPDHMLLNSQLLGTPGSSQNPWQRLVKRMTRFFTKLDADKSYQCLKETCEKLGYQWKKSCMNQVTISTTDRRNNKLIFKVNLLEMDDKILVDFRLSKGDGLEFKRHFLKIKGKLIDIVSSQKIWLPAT
pIC50: −log10 of the molar value.
MEASURED_PARAMETER: pIC50

The following molecules have reported results that may help.
MOLECULE | TESTED_TARGET | pIC50
CN1CCC(CNc2nc(Nc3ccc(C#N)nc3)ncc2C(F)(F)F)CC1 | Serine/threonine-protein kinase Chk1 (Homo sapiens, UniProt O14757) | 6.73
CNc1nc(Nc2cnc(C#N)c(OC3CCN(C)CC3)c2)ncc1C(F)(F)F | Serine/threonine-protein kinase Chk1 (Homo sapiens, UniProt O14757) | 7.27

A. N#Cc1ccc(Nc2ncc(C(F)(F)F)c(NCCCNC3CCCCC3)n2)cn1
B. N#Cc1ccc(Nc2ncc(C(F)(F)F)c(N[C@H]3CC[C@@H](N)CC3)n2)cn1
Smaller pIC50 value? Options are A and B Choose, then provide that item's label.
A
(A: 5.64, B: 7.35)
